system: MDA-MB-231 cells; assay: BrdU-ELISA (DNA synthesis inhibition); assay type: cell-based; conditions: Homo sapiens; MDA-MB-231, 72 h exposure; 95% confidence interval in brackets; read-out: IC50 BrdU-ELISA
readout_label: IC50 (µM)
Entry rule: numbers only, all in µM.

# input Give the measured IC50 of C=C(C)[C@@H]1CCC(C)=C[C@H]1c1c(O)cc(CCCCC)cc1O .
# output 38.4
